system_tested: Protein kinase C eta type (Homo sapiens) (UniProt P24723)
Sequence (P24723 whole entry): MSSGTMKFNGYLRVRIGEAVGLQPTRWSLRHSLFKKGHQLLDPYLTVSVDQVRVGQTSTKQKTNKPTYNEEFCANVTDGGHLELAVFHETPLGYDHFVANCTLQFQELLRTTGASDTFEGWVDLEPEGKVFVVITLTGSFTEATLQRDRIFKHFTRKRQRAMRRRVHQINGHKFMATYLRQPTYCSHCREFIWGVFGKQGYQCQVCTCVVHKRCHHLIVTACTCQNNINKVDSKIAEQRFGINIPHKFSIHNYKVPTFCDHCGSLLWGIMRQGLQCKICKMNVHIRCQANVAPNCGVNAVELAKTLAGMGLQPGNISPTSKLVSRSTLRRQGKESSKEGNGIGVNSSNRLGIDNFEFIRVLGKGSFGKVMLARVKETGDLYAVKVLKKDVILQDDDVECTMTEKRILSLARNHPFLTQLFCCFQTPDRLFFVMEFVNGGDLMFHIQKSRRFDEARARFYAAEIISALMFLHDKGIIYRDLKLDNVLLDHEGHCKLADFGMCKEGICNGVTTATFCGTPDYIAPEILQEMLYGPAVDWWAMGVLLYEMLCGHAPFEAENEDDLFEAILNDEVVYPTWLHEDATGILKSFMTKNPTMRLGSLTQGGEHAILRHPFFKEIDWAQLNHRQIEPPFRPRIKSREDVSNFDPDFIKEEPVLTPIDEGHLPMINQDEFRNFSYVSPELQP
test_summary: Residual activity of human PKCeta at 1 uM relative to control
property_measured: residual activity (%)

>>> print(df.to_string())
                           smiles_structure                             system_tested  recorded_result
0  CN(C)c1cc2cc(n1)CCCn1cc(c3ccccc31)C1=C(C(=O)NC1=O)c1cn(c3ccccc13)CCC2  Protein kinase C eta type (Homo sapiens) (UniProt P24723)              117
1  O=C1NC(=O)C2=C1c1cn(c3ccccc13)CCCc1ccc(c(N3CCCC3)n1)CCCn1cc2c2ccccc21  Protein kinase C eta type (Homo sapiens) (UniProt P24723)               90
2  CN(C)c1nc2ccc1CCCn1cc(c3ccccc31)C1=C(C(=O)NC1=O)c1cn(c3ccccc13)CC2  Protein kinase C eta type (Homo sapiens) (UniProt P24723)              104
3  O=C1NC(=O)C2=C1c1cn(c3ccccc13)CCCc1cc(nc(N3CCCC3)c1)CCCn1cc2c2ccccc21  Protein kinase C eta type (Homo sapiens) (UniProt P24723)              121
